biological target: ΔF508-CFTR (Homo sapiens, UniProt P13569, DEL508-508); construct: host or cells: CFBE41o-, doxycycline-inducible; test: CFTR cell surface levels using HRP-tagged ΔF508-CFTR expressing CFBE cells, in the presence of a co-corrector; assay type: cell-based; details: HRP-tagged ΔF508-CFTR CFBE cells, in the presence of 3 μM co-corrector
Sequence (P13569 with tags, fused parts or gaps DEL508-508): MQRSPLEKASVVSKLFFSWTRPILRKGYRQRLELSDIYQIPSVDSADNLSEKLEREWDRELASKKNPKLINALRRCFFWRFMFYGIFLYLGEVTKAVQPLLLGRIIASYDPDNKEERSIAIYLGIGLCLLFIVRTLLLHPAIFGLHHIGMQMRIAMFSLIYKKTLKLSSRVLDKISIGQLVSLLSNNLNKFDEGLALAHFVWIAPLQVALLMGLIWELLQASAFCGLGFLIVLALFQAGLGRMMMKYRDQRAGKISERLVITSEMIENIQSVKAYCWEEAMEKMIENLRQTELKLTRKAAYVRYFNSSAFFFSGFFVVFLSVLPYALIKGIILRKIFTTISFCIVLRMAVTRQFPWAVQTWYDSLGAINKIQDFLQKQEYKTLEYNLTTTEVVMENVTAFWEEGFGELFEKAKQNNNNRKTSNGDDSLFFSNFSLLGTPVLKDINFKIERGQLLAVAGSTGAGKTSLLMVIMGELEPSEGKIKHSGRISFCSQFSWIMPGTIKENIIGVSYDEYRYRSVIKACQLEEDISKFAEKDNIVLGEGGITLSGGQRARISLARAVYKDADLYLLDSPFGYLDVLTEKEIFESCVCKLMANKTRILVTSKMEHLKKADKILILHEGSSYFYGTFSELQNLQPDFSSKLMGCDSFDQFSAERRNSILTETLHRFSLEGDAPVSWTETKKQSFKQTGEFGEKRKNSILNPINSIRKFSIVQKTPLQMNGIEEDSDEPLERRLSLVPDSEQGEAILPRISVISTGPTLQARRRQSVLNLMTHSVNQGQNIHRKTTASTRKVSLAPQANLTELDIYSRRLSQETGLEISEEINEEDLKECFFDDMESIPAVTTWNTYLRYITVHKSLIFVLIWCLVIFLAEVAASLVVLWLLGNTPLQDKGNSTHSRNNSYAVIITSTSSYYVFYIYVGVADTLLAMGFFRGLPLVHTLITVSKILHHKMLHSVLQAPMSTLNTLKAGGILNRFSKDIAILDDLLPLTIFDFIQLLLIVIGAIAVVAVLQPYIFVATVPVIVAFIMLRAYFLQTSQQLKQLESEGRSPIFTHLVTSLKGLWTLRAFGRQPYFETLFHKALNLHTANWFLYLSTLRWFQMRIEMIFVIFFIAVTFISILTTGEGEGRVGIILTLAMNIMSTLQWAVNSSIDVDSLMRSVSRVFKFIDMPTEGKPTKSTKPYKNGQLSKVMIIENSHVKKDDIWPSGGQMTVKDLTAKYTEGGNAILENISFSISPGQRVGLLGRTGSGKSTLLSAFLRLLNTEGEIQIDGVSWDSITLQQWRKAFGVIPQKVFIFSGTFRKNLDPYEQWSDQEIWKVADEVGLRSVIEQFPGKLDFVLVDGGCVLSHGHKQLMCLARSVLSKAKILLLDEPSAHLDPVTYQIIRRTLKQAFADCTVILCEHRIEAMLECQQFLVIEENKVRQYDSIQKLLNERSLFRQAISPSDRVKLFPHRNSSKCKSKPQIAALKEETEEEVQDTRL
measure: % Activation
Answer as a quantity: numeral, then unit.

Let me check: COCC1CCN(c2cc(C(=O)NS(=O)(=O)CCN(C)C)nc3c2c(C2CCC2)nn3-c2ccccc2)CC1 [Compound 273] , system ΔF508-CFTR (Homo sapiens, UniProt P13569, DEL508-508), measured % Activation is 344.05%

Record CC1(C)CN(C2CCN(c3cc(C(=O)NS(C)(=O)=O)nc4c3c(C3CCC3)nn4-c3ccc(F)cc3)CC2)CCO1 [Compound 588] has ΔF508-CFTR (Homo sapiens, UniProt P13569, DEL508-508) % Activation equal to 571.2%

Observed % Activation on ΔF508-CFTR (Homo sapiens, UniProt P13569, DEL508-508), entry CC(C)c1nn(-c2cccc(N(C)C)n2)c2nc(C(=O)NS(C)(=O)=O)cc(-c3ccc(N4CCOCC4)cc3)c12 [Compound 125] , equals 520.33%

Reported ΔF508-CFTR (Homo sapiens, UniProt P13569, DEL508-508) % Activation for item COCCS(=O)(=O)NC(=O)c1cc(N2CCC(COC)CC2)c2c(C(C)C)nn(C3CCCCC3)c2n1 [Compound 251] was 488.7%

Value (% Activation, ΔF508-CFTR (Homo sapiens, UniProt P13569, DEL508-508)) for record CN(C)S(=O)(=O)NC(=O)c1cc(N2CCC(N3CCC(F)(F)CC3)CC2)c2c(C3CCC3)nn(-c3ccc(F)cc3)c2n1 [Compound 526] = 472.58%

Known value: ΔF508-CFTR (Homo sapiens, UniProt P13569, DEL508-508) % Activation of the compound CN(C)S(=O)(=O)NC(=O)c1cc(-c2ccc(N3CCN(C4CC4)CC3)nc2)c2c(C3CCC3)nn(C3CCCCC3)c2n1 [Compound 536] equals 341.15%

Measured on ΔF508-CFTR (Homo sapiens, UniProt P13569, DEL508-508), CCS(=O)(=O)NC(=O)c1cc(-c2cnc(N(C)C)nc2)c2c(C(C)C)nn(-c3cccc(N(C)C)c3)c2n1 [Compound 78] has a documented % Activation of 520.7%

CCS(=O)(=O)NC(=O)c1cc(-c2ccc(N(C)C3CCOCC3)nc2)c2c(C(C)C)nn(C3CCCCC3)c2n1 [Compound 90] on ΔF508-CFTR (Homo sapiens, UniProt P13569, DEL508-508) gives % Activation = 384.95%

Reading of % Activation for CC(C)c1nn(-c2ccc(F)cc2)c2nc(C(=O)NS(C)(=O)=O)cc(N3CCC4(CC3)NC(=O)NC4=O)c12 [Compound 341] with ΔF508-CFTR (Homo sapiens, UniProt P13569, DEL508-508): 165.4%

Observed % Activation on ΔF508-CFTR (Homo sapiens, UniProt P13569, DEL508-508), entry CC(C)c1nn(-c2ccc(F)cc2)c2nc(C(=O)NS(C)(=O)=O)cc(C3CCN(C(=O)OC(C)(C)C)CC3)c12 [Compound 378] , equals 318.6%

Value sought: % Activation, system ΔF508-CFTR (Homo sapiens, UniProt P13569, DEL508-508), item CS(=O)(=O)NC(=O)c1cc(-c2ccc(N3CCC(C#N)CC3)nc2)c2c(C3CC(F)(F)C3)nn(-c3ccccc3)c2n1 [Compound 195] . Result: 387.47%

ΔF508-CFTR (Homo sapiens, UniProt P13569, DEL508-508) data for CN(C)S(=O)(=O)NC(=O)c1cc(OCC2CCN(C3CCCCC3)CC2)c2c(C3CCC3)nn(-c3ccc(F)cc3)c2n1 [Compound 618] ; its % Activation: 295.9%

Entry CCS(=O)(=O)NC(=O)c1cc(N2CCN(c3ccncc3)CC2)c2c(C3CCC3)nn(C3CCCCC3)c2n1 [Compound 470] , ΔF508-CFTR (Homo sapiens, UniProt P13569, DEL508-508) data, % Activation value: 485.5%

Lab note: compound O=C(NS(=O)(=O)C1CCOC1)c1cc(N2CCN(c3ccncc3)CC2)c2c(C3CCC3)nn(C3CCCCC3)c2n1 (centres unmarked) [Compound 468] tested on ΔF508-CFTR (Homo sapiens, UniProt P13569, DEL508-508); recorded % Activation was 443.05%
